Source: PubChem BioAssay AID463203

- TESTED_TARGET: Glycogen synthase kinase-3 alpha (Homo sapiens) (UniProt P49840)
- Sequence (P49840 whole entry, looked up): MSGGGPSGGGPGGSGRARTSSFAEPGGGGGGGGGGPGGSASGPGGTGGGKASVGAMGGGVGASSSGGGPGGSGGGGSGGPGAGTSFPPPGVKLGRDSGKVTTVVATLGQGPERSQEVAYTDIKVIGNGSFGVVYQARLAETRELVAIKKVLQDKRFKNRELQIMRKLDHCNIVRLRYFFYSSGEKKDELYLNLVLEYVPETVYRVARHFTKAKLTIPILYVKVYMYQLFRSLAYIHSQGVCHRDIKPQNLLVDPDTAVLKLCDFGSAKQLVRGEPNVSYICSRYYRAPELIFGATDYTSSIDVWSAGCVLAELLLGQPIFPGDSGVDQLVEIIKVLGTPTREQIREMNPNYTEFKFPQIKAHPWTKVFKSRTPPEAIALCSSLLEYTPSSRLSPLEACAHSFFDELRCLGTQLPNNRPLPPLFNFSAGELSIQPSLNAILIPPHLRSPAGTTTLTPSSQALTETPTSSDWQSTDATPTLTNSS
- TEST_NAME: concentration-response blocking of human GSK3A – biochemical, luminescence, cell-free homogeneous, retest, dose response (AID 463203)
- MEASUREMENT_CONDITIONS: GSK-3 alpha enzyme, ADP-Glo luminescence, 60 min
The source made the active and inactive calls.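 Rule for the calls: active = more than half of replicate measurements showing over 20% loss of kinase signal relative to plate controls; inconclusive = some but at most half of replicates over 20% loss; inactive = no replicate over 20% signal loss.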
Would you mind answering with one of these outcomes? class 1 for active, class 0 for inactive

Worked set:
1. CCCCCCCCCCCCCCCC[N+](C)(C)CC    class 0
2. COC(=O)C1=C(C)N(C)C(=O)/C1=C\c1ccco1    class 0
3. O=c1[nH]cccc1-c1nc2ccccc2[nH]1    class 1

**Query** GET /call?item= `COc1ccc(-n2c(C)c([N+](=O)[O-])c3ccc(O)c(CN4CCCCC4)c32)cc1` returns the recorded outcome of this test.
**Result** class 1

**Query** GET /call?item= `COc1ccc(-c2ncncc2-c2ccccc2)c(O)c1` returns the recorded outcome of this test.
**Result** class 1

**Query** GET /call?item= CCN(CC)c1ccc(C2C(C(=O)OC(C)C)C(=O)CC(C)(O)C2C(=O)OC(C)C)cc1 (stereo not drawn) returns the recorded outcome of this test.
**Result** class 0

**Query** GET /call?item= `COC(=O)c1oc2ccc(Cl)cc2c1N` returns the recorded outcome of this test.
**Result** class 0

**Query** GET /call?item= `CCn1c(SCC(=O)N/N=C/c2cccs2)nc2ccccc21` returns the recorded outcome of this test.
**Result** class 0

**Query** GET /call?item= `COc1ccc(C2=Nn3c(nnc3-c3ccccc3)SC2)cc1OC` returns the recorded outcome of this test.
**Result** class 0
